FYI, the data here is from ChEMBL document CHEMBL1145081.

Measured Max response of individual entries
# test-system: Kappa-type opioid receptor (Rattus norvegicus) (UniProt P34975)
# Sequence (P34975 whole entry): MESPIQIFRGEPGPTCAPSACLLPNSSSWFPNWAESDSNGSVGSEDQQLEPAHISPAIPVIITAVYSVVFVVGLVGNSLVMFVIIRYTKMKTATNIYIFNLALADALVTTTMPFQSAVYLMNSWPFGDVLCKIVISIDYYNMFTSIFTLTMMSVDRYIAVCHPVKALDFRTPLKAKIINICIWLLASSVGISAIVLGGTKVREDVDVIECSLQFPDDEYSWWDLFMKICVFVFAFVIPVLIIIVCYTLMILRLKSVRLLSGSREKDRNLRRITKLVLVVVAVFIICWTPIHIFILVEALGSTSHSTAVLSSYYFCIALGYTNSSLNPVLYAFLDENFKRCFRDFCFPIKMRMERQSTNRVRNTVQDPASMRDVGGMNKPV
# experiment-description: Inhibition of Forskolin-Stimulated Adenylyl Cyclase in CHO cells expressing Opioid receptor kappa 1 at 10 uM relative to 100 nM Dyn A-(1-13)NH(2)
# Type: functional, cell-based
Give your result in % as a bare value.

CC(C)C[C@H](NC(=O)[C@H](CCc1ccccc1)NC(=O)CNC(=O)CNC(=O)[C@@H](N)Cc1ccc(O)cc1)C(=O)N[C@@H](CCCN=C(N)N)C(=O)N[C@@H](CCCN=C(N)N)C(=O)N[C@H](C)C(=O)N[C@@H](CCCN=C(N)N)C(=O)N1CCC[C@H]1C(=O)N[C@@H](CCCCN)C(N)=O 100

Enquiry: With Kappa-type opioid receptor (Rattus norvegicus) (UniProt P34975) as the test system, provide measured Max response for this molecule: CC(C)C[C@H](NC(=O)[C@@H](CCc1ccccc1)NC(=O)CNC(=O)CNC(=O)[C@@H](N)Cc1ccc(O)cc1)C(=O)N[C@@H](CCCN=C(N)N)C(=O)N[C@@H](CCCN=C(N)N)C(=O)N[C@H](C)C(=O)N[C@@H](CCCN=C(N)N)C(=O)N1CCC[C@H]1C(=O)N[C@@H](CCCCN)C(N)=O
Return: 95

Enquiry: With Kappa-type opioid receptor (Rattus norvegicus) (UniProt P34975) as the test system, provide measured Max response for this molecule: CC(C)C[C@H](NC(=O)[C@H](Cc1ccccc1)NC(=O)CNC(=O)CNC(=O)[C@@H](N)Cc1ccc(O)cc1)C(=O)N[C@@H](CCCN=C(N)N)C(=O)N[C@@H](CCCN=C(N)N)C(=O)N[C@H](C)C(=O)N[C@@H](CCCN=C(N)N)C(=O)N1CCC[C@H]1C(=O)N[C@@H](CCCCN)C(N)=O
Return: 73

Enquiry: With Kappa-type opioid receptor (Rattus norvegicus) (UniProt P34975) as the test system, provide measured Max response for this molecule: CC(C)C[C@H](NC(=O)C1(NC(=O)CNC(=O)CNC(=O)[C@@H](N)Cc2ccc(O)cc2)Cc2ccccc2C1)C(=O)N[C@@H](CCCN=C(N)N)C(=O)N[C@@H](CCCN=C(N)N)C(=O)N[C@H](C)C(=O)N[C@@H](CCCN=C(N)N)C(=O)N1CCC[C@H]1C(=O)N[C@@H](CCCCN)C(N)=O
Return: 39

Enquiry: With Kappa-type opioid receptor (Rattus norvegicus) (UniProt P34975) as the test system, provide measured Max response for this molecule: CC(C)C[C@H](NC(=O)[C@@H]1Cc2ccccc2CN1C(=O)CNC(=O)CNC(=O)[C@@H](N)Cc1ccc(O)cc1)C(=O)N[C@@H](CCCN=C(N)N)C(=O)N[C@@H](CCCN=C(N)N)C(=O)N[C@H](C)C(=O)N[C@@H](CCCN=C(N)N)C(=O)N1CCC[C@H]1C(=O)N[C@@H](CCCCN)C(N)=O
Return: 91

---

Measured Max response of individual entries
# test-system: Kappa-type opioid receptor (Rattus norvegicus)
# experiment-description: Inhibition of Forskolin-Stimulated Adenylyl Cyclase in CHO cells expressing Opioid receptor kappa 1 at 10 uM relative to 100 nM Dyn A-(1-13)NH(2)
# Format: functional, cell-based
Remember to put the unit after the number in your answer.

Answered examples (3):
CC(C)C[C@H](NC(=O)[C@]1(NC(=O)CNC(=O)CNC(=O)[C@@H](N)Cc2ccc(O)cc2)CCc2ccccc2C1)C(=O)N[C@@H](CCCN=C(N)N)C(=O)N[C@@H](CCCN=C(N)N)C(=O)N[C@H](C)C(=O)N[C@@H](CCCN=C(N)N)C(=O)N1CCC[C@H]1C(=O)N[C@@H](CCCCN)C(N)=O 74%
CC(C)C[C@H](NC(=O)[C@@]1(NC(=O)CNC(=O)CNC(=O)[C@@H](N)Cc2ccc(O)cc2)CCc2ccccc2C1)C(=O)N[C@@H](CCCN=C(N)N)C(=O)N[C@@H](CCCN=C(N)N)C(=O)N[C@H](C)C(=O)N[C@@H](CCCN=C(N)N)C(=O)N1CCC[C@H]1C(=O)N[C@@H](CCCCN)C(N)=O 96%
CC(C)C[C@H](NC(=O)[C@@H](Cc1ccccc1)N(C)C(=O)CNC(=O)CNC(=O)[C@@H](N)Cc1ccc(O)cc1)C(=O)N[C@@H](CCCN=C(N)N)C(=O)N[C@@H](CCCN=C(N)N)C(=O)N[C@H](C)C(=O)N[C@@H](CCCN=C(N)N)C(=O)N1CCC[C@H]1C(=O)N[C@@H](CCCCN)C(N)=O 99%

Continue with the compound presented below.
Enquiry: Identify measured Max response corresponding to CC(C)C[C@H](NC(=O)[C@@H](Cc1ccccc1)NC(=O)CNC(=O)CNC(=O)[C@@H](N)Cc1ccc(O)cc1)C(=O)N[C@@H](CCCN=C(N)N)C(=O)N[C@@H](CCCN=C(N)N)C(=O)N[C@H](C)C(=O)N[C@@H](CCCN=C(N)N)C(=O)N1CCC[C@H]1C(=O)N[C@@H](CCCCN)C(N)=O
Return: 100%
